A collection of molecules and their measured growth
- System: PC-3 prostate
- TEST: NCI-60 one-dose screen, 48 h (100 = growth as untreated, 0 = no growth, -100 = all killed)
- TEST PARAMETERS: 10 µM unless noted
Compounds without any hit were thinned out: in the full panel of roughly 83,000, 20% have a hit.
PARAMETER: growth (%)

• CC(C)(C)C(=O)OCOP(=O)(OCOC(=O)C(C)(C)C)C1CCCN(OC(=O)c2ccccc2)C1=O (stereo not drawn) = 49.7
• C=CC(=O)N1CCC[C@@H](n2nc(-c3ccc(Oc4ccccc4)cc3)c3c(N)ncnc32)C1 = 57.2
• N[C@@H]1CCCN(c2c(/C=C3\SC(=O)NC3=O)cccc2-c2ccccc2)C1 = 47.5
• C/C(=C(/c1ccc(Cl)cc1)c1ccc(OCCN2CCCCC2)cc1)c1ccccc1 = 66.8
• C/C(=N\NC(=O)Cn1c(-c2ccc(S(C)(=O)=O)cc2)nc2ccccc21)c1ccc(Cl)cc1 = 52.2
• COC(=O)CCCNc1c(-c2c(O)c(O)cc3c(O)c(-c4c(C)cc5c(-c6nc7ccccn7c6NCCCC(=O)OC)c(O)c(O)cc5c4O)c(C)cc23)nc2ccccn12 = 52.7
• COc1ccc(OC)c(NC2=C(SCCc3ccccc3)C(=O)c3ccccc3C2=O)c1 = 64.7
• COc1c(OCCCN2CCOCC2)ccc2c3n(c(=NC(=O)c4cnc(N)nc4)nc12)CCN3 = 12

====

- Test system: A549/ATCC NSCLC
- TEST: NCI-60 one-dose screen, 48 h (100 = growth as untreated, 0 = no growth, -100 = all killed)
- TEST PARAMETERS: 10 µM unless noted
The panel holds about 83,000 compounds, 20% with a hit somewhere; the sample as a whole holds those more often.
PARAMETER: growth (%)

• CC/C(=C(/c1ccc(Cl)cc1)c1ccc(OCCN2CCCCC2)cc1)c1ccc(Cl)cc1 = 73
• CC/C=C\C[C@H]1C/C=C2/C(=O)C=C[C@@H]2C/C=C\CCCC(=O)O1 = -25.2
• COc1cc(Nc2ncc(F)c(Nc3ccc4c(n3)N(COP(=O)(O)O)C(=O)C(C)(C)O4)n2)cc(OC)c1OC = 0.294
• CCOC(=O)c1sc(NC(=O)COc2ccc(/C=C3\Cc4ccc(Cl)cc4C3=O)cc2)nc1C = 104
• CS(=O)(=O)N1CCc2c(-c3cnc(N)nc3)nc(N3CCOCC3)nc21 = -0.665

====

- Test system: SK-OV-3 ovarian
- TEST: NCI-60 one-dose screen, 48 h (100 = growth as untreated, 0 = no growth, -100 = all killed)
- TEST PARAMETERS: 10 µM unless noted
The panel holds about 83,000 compounds, 20% with a hit somewhere; the sample as a whole holds those more often.
A collection of compounds and their measured growth
PARAMETER: growth (%)

- CC(=Nc1ccccc1)C1=C(O)C(Cc2ccc(O)cc2)NC1=O (centres undefined): 23
- O=C(NO)c1ccc(Cn2c(=O)n(-c3ccccc3F)c(=O)c3ccccc32)cc1: 9.04
- COc1ccc(S(=O)(=O)N(C(C)=O)c2ccccc2/C=C/c2cc[n+]([O-])cc2)cc1: 6.17
- O=C1C=CC2(NN=C(c3ccccc3)N2c2ccccc2)c2cccc(O)c21 (centres undefined): 91.2
- O=C(c1ccccc1)C(c1ccccc1)N1CCOCC1 (centres undefined): 105
- Nc1ncnc2c1c(-c1cccc(OCc3ccccc3)c1)cn2C1CC(CN2CCC2)C1 (centres undefined): 40.2
- COc1cnc2c(c1)C(=O)c1c-2n(CCCN2CCOCC2)c(=O)c2cc(Cl)ccc12: 10.7
- COc1cc(N2CCC(N3CCN(C)CC3)CC2)ccc1Nc1ncnc(Nc2ccccc2S(=O)(=O)C(C)C)n1: 87.4
- COc1ccc(COc2cc3oc(=O)c4cc(C(C)O)ccc4c3cc2OC)cc1 (centres undefined): 40.5
- COc1cnc2c(c1)C(=O)c1c-2n(CCCN2CCC(N)CC2)c(=O)c2cc([N+](=O)[O-])ccc12: 30.4
- O=C1C=CC2(NN=C(c3ccccc3)N2c2ccc(Cl)cc2)c2cccc(O)c21 (centres undefined): 102
- CNC(=O)c1ccccc1Nc1nc(Nc2ccc3c(c2OC)CCC[C@H](N2CCN(CCO)CC2)C3)ncc1Cl: -6.83
- O=C(Nc1ccc(C(=O)Nc2ccc(C3=NCCCN3)cc2)cc1)Nc1ccc(C2=NCCCN2)cc1: 97.8
- C=CCN(/C=C1/C(=O)O[C@H](COC)[C@@]2(C)C1=C(O)C(=O)C1=C2[C@H](OC(C)=O)C[C@]2(C)C(=O)CC[C@@H]12)CC=C: -19.6
- CC(C)NC[C@@H](C(=O)N1CCN(c2ncnc3c2[C@H](C)C[C@H]3O)CC1)c1ccc(Cl)cc1: -9.72
- CC(=Nc1ccccc1)C1=C(O)C(Cc2ccccc2)NC1=O (centres undefined): 16.8
- N#Cc1c(C(F)(F)F)cc(Nc2ccc3nc(NCCN4CCCC4)oc3c2)n2c1nc1ccccc12: 89.9
- O=c1[nH]ccc2c(S(=O)(=O)N3CCCNCC3)cccc12: -0.289
- COc1cc(NC2CCC(=O)N2c2ccc(Cl)cc2Cl)cc(OC)c1OC (centres undefined): 102

====

- Tested on: SN12C renal
- TEST: NCI-60 one-dose screen, 48 h (100 = growth as untreated, 0 = no growth, -100 = all killed)
- TEST PARAMETERS: 10 µM unless noted
The panel holds about 83,000 compounds, 20% with a hit somewhere; the sample as a whole holds those more often.
A collection of molecules and their measured growth
PARAMETER: growth (%)

• CCCCCC(=O)OCc1ccc(Cl)c(Cl)c1 = 111
• Cc1c(CN2CCN(C(=O)[C@H](C)O)CC2)sc2c(N3CCOCC3)nc(-c3cnc(N)nc3)nc12 = 4.45
• O=C1CC(c2ccc3c(c2)OCO3)c2ncn(-c3ccc(Cl)cc3)c2N1 (stereo not given) = 56.6
• C=CCN(/C=C1/C(=O)O[C@H](COC)[C@@]2(C)C1=C(O)C(=O)C1=C2[C@H](OC(C)=O)C[C@]2(C)C(=O)CC[C@@H]12)CC=C = 30.2
• Cn1ncc(Cl)c1-c1cc(C(=O)N[C@H](CN)Cc2ccc(F)c(F)c2)oc1Cl = 16.5
• COc1cc2c3c(c1)nc(C)n3CCC2 = 99.6
• O=C1CC(c2ccc(Cl)cc2)c2ncn(-c3cccc(Cl)c3)c2N1 (stereo not given) = 56.1
• O=[N+]([O-])c1cc(Br)cc2c1[nH]c1ccc(Br)cc12 = 82.7
• Nc1nc(N)c2cc(CNc3ccc(C(=O)NC(CC(=O)O)C(=O)O)cc3)ccc2n1 (stereo not given) = 15.5
• C/C=C/C=N/NC(=S)Nc1ccccc1 = 89.3

====

- Tested on: SK-OV-3 ovarian
- TEST: NCI-60 one-dose screen, 48 h (100 = growth as untreated, 0 = no growth, -100 = all killed)
- TEST PARAMETERS: 10 µM unless noted
About 83,000 compounds went through this panel and 20% of them were active in at least one assay; those are over-represented in the sample as a whole.
A collection of molecules and their measured growth
PARAMETER: growth (%)

- CC(=O)Nc1cccc(-n2c(=O)n(C3CC3)c(=O)c3c(Nc4ccc(I)cc4F)n(C)c(=O)c(C)c32)c1: 11.3
- CCc1nc2cc(F)c(/C=C/C(=O)NO)cc2c(=O)n1CCc1ccccc1: 1.17
- COC(=O)Nc1nc2ccc(C(=O)c3ccc(N(C)C4COC4)cc3)cc2[nH]1: 6.93
- N#Cc1c(NC(=O)c2cccs2)[n+]([O-])c2ccc(F)cc2[n+]1[O-]: 82.6
- CCCCN1C(=O)c2cccc3c(-c4ccc5c(c4)ncn5C4CCCCC4)ccc(c23)C1=O: 92.3

====

- Tested on: SW-620 colon
- TEST: NCI-60 one-dose screen, 48 h
- TEST PARAMETERS: 10 µM unless noted
Compounds without any hit were thinned out: in the full panel of roughly 83,000, 20% have a hit. Activity calls are given as the source filed them. The calls were made as follows: active = growth percent below 10; inactive = the rest.
Outcomes: YES (active), NO (inactive)

* Clc1ccc2c(NCCNc3nc(N4CCCC4)nc4ccccc34)ccnc2c1 | YES
* Cc1ccc(NC(=O)Nc2ccc(Nc3ncnc4sc5c(c34)CCOC5)cc2)cc1Cl | NO
* N#Cc1c(-c2ccc(C(F)(F)F)cc2)c(F)c(NCCC2CCC(O)C2)n2c1nc1ccccc12 (stereo not given) | NO
* Nc1ncnc2c1c(-c1cccc(OCc3ccccc3)c1)cn2C1CC(CN2CCC2)C1 (stereo not given) | YES
* C[C@@H](C[C@H](CCO)c1cc(C(F)(F)F)cc(C(F)(F)F)c1)c1ccc2ccccc2c1 | NO

====

A collection of compounds and their measured growth
- Tested on: KM12 colon
- TEST: NCI-60 one-dose screen, 48 h (100 = growth as untreated, 0 = no growth, -100 = all killed)
- TEST PARAMETERS: 10 µM unless noted
The panel holds about 83,000 compounds, 20% with a hit somewhere; the sample as a whole holds those more often.
PARAMETER: growth (%)

• C=CC[n+]1c(/C=C/C=C2\N(C)c3ccccc3C2(C)C)sc2ccc(OC)cc21 = 13.4
• COc1cccc2cc(-c3nc(C4CCC(C(=O)O)CC4)n4ncnc(N)c34)[nH]c12 (stereo not given) = 18.4
• Cn1cnc(-c2cc3nccc(Oc4ccc(NC(=S)NC(=O)Cc5ccccc5)cc4F)c3s2)c1 = 21.8
• O=C(Nc1nc2cccc(-c3ccc(CN4CCS(=O)(=O)CC4)cc3)n2n1)C1CC1 = 31.7
• COC(=O)c1[nH]cnc1/N=N/N(C)CCO = 106
